The reported measurements were obtained from ChEMBL document CHEMBL1149398.

Entries with their measured pIC50, system Beta-1 adrenergic receptor (Homo sapiens):
pIC50: −log10 of the molar value.

Reference set, count: 4
INSERT INTO assay_data (compound, assay_endpoint, readout_value) VALUES
  ('O=C(NC[C@@H]1CCN2CCC[C@@H]12)c1cc(Cl)cn2ccnc12', 'pIC50', '< 5.00'),
  ('COc1cc(N)c(Cl)cc1C(=O)NC1CCN(CCCOc2ccc(F)cc2)CC1OC (stereo not given) [CISAPRIDE]', 'pIC50', '< 5.00'),
  ('COc1cc(N)c(Cl)cc1C(=O)NC[C@@H]1CCN2CCC[C@@H]12', 'pIC50', '< 5.00'),
  ('O=C(OC[C@@H]1CCN2CCC[C@@H]12)c1[nH]nc2ccccc12 (single isomer, unassigned)', 'pIC50', '< 5.00');

As a next step, examine the compound that follows.
[Q] Quick one: pIC50 of COc1cc(N)c(Cl)cc1C(=O)N[C@@H]1C2CC3CN(C2)CC31 (stereo not given in full) ?
[A] < 5.00

* * *

Biological target: Serotonin 3 receptor (5HT3) (Mus musculus) (UniProt Q9JHJ5+P23979)
Sequence (P23979 whole entry, looked up): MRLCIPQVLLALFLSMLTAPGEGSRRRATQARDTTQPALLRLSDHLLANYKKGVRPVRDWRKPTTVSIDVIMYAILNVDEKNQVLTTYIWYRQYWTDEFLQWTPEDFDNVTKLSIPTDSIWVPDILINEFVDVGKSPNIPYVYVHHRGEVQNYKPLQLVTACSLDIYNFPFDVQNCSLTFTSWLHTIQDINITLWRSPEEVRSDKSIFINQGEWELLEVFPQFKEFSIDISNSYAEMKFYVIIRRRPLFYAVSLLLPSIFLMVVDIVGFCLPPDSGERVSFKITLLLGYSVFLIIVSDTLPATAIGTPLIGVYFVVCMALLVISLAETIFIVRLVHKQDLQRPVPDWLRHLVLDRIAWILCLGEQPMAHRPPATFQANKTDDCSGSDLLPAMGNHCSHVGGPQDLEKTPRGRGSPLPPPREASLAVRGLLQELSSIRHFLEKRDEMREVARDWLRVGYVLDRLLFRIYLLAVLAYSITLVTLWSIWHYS
Sequence (Q9JHJ5 whole entry, looked up): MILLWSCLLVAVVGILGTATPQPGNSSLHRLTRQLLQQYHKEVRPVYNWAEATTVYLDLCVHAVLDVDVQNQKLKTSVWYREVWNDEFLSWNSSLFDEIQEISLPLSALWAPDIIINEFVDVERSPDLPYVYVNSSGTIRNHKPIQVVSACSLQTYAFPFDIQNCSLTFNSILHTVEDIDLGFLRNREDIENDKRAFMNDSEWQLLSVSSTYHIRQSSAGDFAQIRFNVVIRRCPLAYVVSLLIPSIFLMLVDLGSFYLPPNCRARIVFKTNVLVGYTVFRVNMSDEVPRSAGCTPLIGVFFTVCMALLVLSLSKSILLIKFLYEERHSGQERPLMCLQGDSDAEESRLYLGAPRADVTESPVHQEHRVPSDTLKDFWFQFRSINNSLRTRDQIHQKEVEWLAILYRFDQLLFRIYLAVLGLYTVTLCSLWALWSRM
Assay: Antagonism at 5HT3 receptor in mice by von Bezold-Jarisch reflex inhibition at 10 mg/kg, ip
Type: functional, organism-based
Set-up: dose 10 mg/kg
assay-endpoint: inhibition (%)
Give bare numbers, in %.

Reference set, count: 3
INSERT INTO measurements (compound, assay_endpoint, readout_value) VALUES
  ('CC(C)n1c(=O)n(C(=O)NC[C@@H]2CCN3CCC[C@@H]23)c2ccccc21 (relative stereo)', 'inhibition', 87),
  ('CCOc1cc(N)c(Cl)cc1C(=O)NC[C@@H]1CCN2CCC[C@@H]12', 'inhibition', 89),
  ('COc1cc(N)c(Cl)cc1C(=O)OC[C@@H]1CCN2CCC[C@@H]12', 'inhibition', 0);

State the recorded inhibition for every item in the following list.
1. COc1cc(N)c(Cl)cc1C(=O)NC[C@@H]1CCN2CCC[C@@H]12
2. COc1cc(N)c(Cl)cc1C(=O)NC[C@H]1CCN2CCC[C@H]12

[A]
[87, 87]

* * *

Molecular target: D(2) dopamine receptor (Homo sapiens, UniProt P14416)
Sequence (P14416 whole entry): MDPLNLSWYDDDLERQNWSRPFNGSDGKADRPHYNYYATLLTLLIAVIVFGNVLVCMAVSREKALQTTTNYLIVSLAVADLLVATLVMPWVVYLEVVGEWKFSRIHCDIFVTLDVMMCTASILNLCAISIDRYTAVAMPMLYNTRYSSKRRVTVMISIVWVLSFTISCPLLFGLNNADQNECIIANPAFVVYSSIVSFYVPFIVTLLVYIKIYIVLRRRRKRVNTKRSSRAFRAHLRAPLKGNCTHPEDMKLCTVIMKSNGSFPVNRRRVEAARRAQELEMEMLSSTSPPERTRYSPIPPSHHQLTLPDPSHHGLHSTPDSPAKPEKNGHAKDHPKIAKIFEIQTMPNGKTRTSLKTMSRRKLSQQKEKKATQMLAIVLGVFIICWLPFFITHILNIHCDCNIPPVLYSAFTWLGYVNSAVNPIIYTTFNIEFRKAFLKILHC
Assay: Binding affinity to dopamine receptor D2
assay-endpoint: IC50

Reference set, count: 8
INSERT INTO results (compound, assayed_system, readout_value) VALUES
  ('O=C(NC[C@@H]1CCN2CCC[C@@H]12)c1cc(Cl)cn2ccnc12', 'D(2) dopamine receptor (Homo sapiens, UniProt P14416)', '> 10 µM'),
  ('COc1cc(N)c(Cl)cc1C(=O)NC[C@@H]1CCN2CCC[C@@H]12', 'D(2) dopamine receptor (Homo sapiens, UniProt P14416)', '> 10 µM'),
  ('COc1cc(N)c(Cl)cc1C(=O)OC[C@@H]1CCN2CCC[C@@H]12', 'D(2) dopamine receptor (Homo sapiens, UniProt P14416)', '> 10 µM'),
  ('COc1cc(N)c(Cl)cc1C(=O)NC[C@H]1CCN2CCC[C@H]12', 'D(2) dopamine receptor (Homo sapiens, UniProt P14416)', '3.9 µM'),
  ('COc1cc(N)c(Cl)cc1C(=O)N[C@@H]1C2CC3CN(C2)CC31 (some centres undefined)', 'D(2) dopamine receptor (Homo sapiens, UniProt P14416)', '> 10 µM'),
  ('Cn1nc(C(=O)OC[C@@H]2CCN3CCC[C@@H]23)c2ccccc21 (single isomer, unassigned)', 'D(2) dopamine receptor (Homo sapiens, UniProt P14416)', '> 10 µM'),
  ('O=C(OC[C@@H]1CCN2CCC[C@@H]12)c1[nH]nc2ccccc12 (single isomer, unassigned)', 'D(2) dopamine receptor (Homo sapiens, UniProt P14416)', '> 10 µM'),
  ('O=C(OC[C@@H]1CCN2CCC[C@@H]12)c1c[nH]c2ccccc12', 'D(2) dopamine receptor (Homo sapiens, UniProt P14416)', '> 10 µM');

As a next step, examine the compound that follows.
[Q] Quick one: IC50 of CCOc1cc(N)c(Cl)cc1C(=O)NC[C@@H]1CCN2CCC[C@@H]12 ?
[A] 5.3 µM
